- test_summary: Human HepG2 cell viability assay in 384 well format
- Type: toxicity, cell-based
- Parameters: dose 125 nL, time 70.5 hour; concentration not given beside the values
- setup_conditions: HepG2 cells, read-out: Inhibition
endpoint_name: cytotoxicity at 70.5 h
The reply should consist of the numeric value with the unit placed after it.

Here is how some compounds turned out for cytotoxicity at 70.5 h.
Can you share its cytotoxicity at 70.5 h? I mean this compound: `CN[C@@H]1CCC[C@@H](Oc2ccccc2Oc2ccc(C)cc2)[C@@H]1O`
22.2%

Can you share its cytotoxicity at 70.5 h? I mean this compound: CCNc1cc2c(nn1)CCN(C(=O)C1Cc3ccccc3O1)C2 (configuration not stated)
-12.9%

Can you share its cytotoxicity at 70.5 h? I mean this compound: `COC[C@@H]1CCC[C@@]12CN(C(=O)N(C)C)CCO2`
0.626%

Can you share its cytotoxicity at 70.5 h? I mean this compound: c1ncn(CC2CCCN(Cc3nnc(C4CC4)o3)C2)n1 (configuration not stated)
11.5%

Can you share its cytotoxicity at 70.5 h? I mean this compound: `Cc1cc(C(=O)CN2C(=O)c3ccccc3CS2(=O)=O)c(C)[nH]1`
-6.26%

Can you share its cytotoxicity at 70.5 h? I mean this compound: O=C(c1nc(=O)[nH]c2ccccc12)N1CCCC2(CCNC2)C1 (configuration not stated)
8.43%

Can you share its cytotoxicity at 70.5 h? I mean this compound: `CC(C)(C)OC(=O)NC(C)(C)c1noc(CSc2nncs2)n1`
25.7%

Can you share its cytotoxicity at 70.5 h? I mean this compound: CC(=O)N1CCCN(C(C)C(=O)Nc2ccnn2C(C)C)CC1 (configuration not stated)
-3.26%

Provide cytotoxicity at 70.5 h for all items below, preserving their order.
1. O=C(N[C@@H]1CN(c2ncccn2)C[C@@H]2CCCO[C@@H]21)c1cnccn1
2. Cn1cnnc1-c1ccnc(NCc2ccc(Br)cc2)c1

1: 2.24%; 2: -4.99%

The origin of these recorded values is ChEMBL document CHEMBL3507680.
